Assay: activity coefficient (dimensionless); of the first substance listed, at infinite dilution; xn = mol fraction of the nth substance listed
Conditions: 328.15 K; Liquid; Chromatography; x1 = 0
READOUT LABEL: activity coefficient

Field: example entries. Status: answers known.
- COMPOUND: "C#CCCCCC [1-heptyne] + CCn1cc[n+](C)c1.N#C[B-](C#N)(C#N)C#N"
  activity coefficient: 5.51
- COMPOUND: "CCO [ethanol] + CCn1cc[n+](C)c1.N#C[B-](C#N)(C#N)C#N"
  activity coefficient: 1.21
- COMPOUND: "C=CCCCC [hex-1-ene] + CCn1cc[n+](C)c1.N#C[B-](C#N)(C#N)C#N"
  activity coefficient: 12.2

[P] O [water] + CCn1cc[n+](C)c1.N#C[B-](C#N)(C#N)C#N
[Q] C1CCCCCC1 [cycloheptane] + CCn1cc[n+](C)c1.N#C[B-](C#N)(C#N)C#N
Hi team, can someone confirm which has the larger activity coefficient: P or Q ? Thanks. To answer, give the label that identifies your chosen option.
Q
(Q: 17, P: 1.66)

[P] C1CCCCC1 [cyclohexane] + CCn1cc[n+](C)c1.N#C[B-](C#N)(C#N)C#N
[Q] CCCO [propan-1-ol] + CCn1cc[n+](C)c1.N#C[B-](C#N)(C#N)C#N
[R] C1CCOC1 [tetrahydrofuran] + CCn1cc[n+](C)c1.N#C[B-](C#N)(C#N)C#N
[S] C1CCCCCCC1 [cyclooctane] + CCn1cc[n+](C)c1.N#C[B-](C#N)(C#N)C#N
[T] CCCCCCCCCC [decane] + CCn1cc[n+](C)c1.N#C[B-](C#N)(C#N)C#N
Please produce an ascending ranking of these compounds based on activity coefficient. Dear reader, please state the labels in the requested order.
R, Q, P, S, T
(R: 0.737, Q: 1.5, P: 13.2, S: 22.5, T: 137)

---

Assay: activity coefficient (dimensionless); of the first substance listed, at infinite dilution; xn = mol fraction of the nth substance listed
Details: 358.15 K; Liquid; Chromatography; x1 = 0
READOUT LABEL: activity coefficient

[I] C1CCCCCCC1 [cyclooctane] + CCn1cc[n+](C)c1.N#C[B-](C#N)(C#N)C#N
[II] CCCOCCC [dipropyl ether] + CCn1cc[n+](C)c1.N#C[B-](C#N)(C#N)C#N
Please indicate which item has the smaller measured activity coefficient: I versus II Indicate your choice by writing its label.
II

[I] c1ccccc1 [benzene] + CCn1cc[n+](C)c1.N#C[B-](C#N)(C#N)C#N
[II] CCC(C)(C)OC [2-methoxy-2-methylbutane] + CCn1cc[n+](C)c1.N#C[B-](C#N)(C#N)C#N
[III] CCc1ccccc1 [ethylbenzene] + CCn1cc[n+](C)c1.N#C[B-](C#N)(C#N)C#N
[IV] C=CCCCCCC [oct-1-ene] + CCn1cc[n+](C)c1.N#C[B-](C#N)(C#N)C#N
[V] CCC(=O)CC [pentan-3-one] + CCn1cc[n+](C)c1.N#C[B-](C#N)(C#N)C#N
Sort (5 compounds) by activity coefficient: min first. Answer by writing out the labels in the requested order.
V, I, III, II, IV
(V: 0.771, I: 1.21, III: 2.61, II: 4.32, IV: 23.1)

---

Test: activity coefficient (dimensionless); of the first substance listed, at infinite dilution; xn = mol fraction of the nth substance listed
Settings: 308.15 K; Liquid; Chromatography; x1 = 0
READOUT LABEL: activity coefficient

Below, 3 compounds whose answers are already recorded.
- COMPOUND: "CCCCCCCC [octane] + CCn1cc[n+](C)c1.N#C[B-](C#N)(C#N)C#N"
  activity coefficient: 73.6
- COMPOUND: "C1CCCCCCC1 [cyclooctane] + CCn1cc[n+](C)c1.N#C[B-](C#N)(C#N)C#N"
  activity coefficient: 26.6
- COMPOUND: "Cc1ccccc1C [1,2-dimethylbenzene] + CCn1cc[n+](C)c1.N#C[B-](C#N)(C#N)C#N"
  activity coefficient: 2.18

[I] C1=CCCCC1 [cyclohexene] + CCn1cc[n+](C)c1.N#C[B-](C#N)(C#N)C#N
[II] C=CCCCC [hex-1-ene] + CCn1cc[n+](C)c1.N#C[B-](C#N)(C#N)C#N
Field: entry with larger activity coefficient (options I / II ). When you have decided, please share the label of that item.
II
(II: 13.5, I: 6.92)

---

Assay: activity coefficient (dimensionless); of the first substance listed, at infinite dilution; xn = mol fraction of the nth substance listed
Conditions: 358.15 K; Liquid; Chromatography; x1 = 0
READOUT LABEL: activity coefficient

- COMPOUND: "C=CCCCC [hex-1-ene] + CCn1cc[n+](C)c1.N#C[B-](C#N)(C#N)C#N"
  READOUT LABEL: "activity coefficient"
  ASSAY RESULT: 10.6
- COMPOUND: "CCO [ethanol] + CCn1cc[n+](C)c1.N#C[B-](C#N)(C#N)C#N"
  READOUT LABEL: "activity coefficient"
  ASSAY RESULT: 0.986
- COMPOUND: "C1CCOC1 [tetrahydrofuran] + CCn1cc[n+](C)c1.N#C[B-](C#N)(C#N)C#N"
  READOUT LABEL: "activity coefficient"
  ASSAY RESULT: 0.789
- COMPOUND: "CCCCCCC [heptane] + CCn1cc[n+](C)c1.N#C[B-](C#N)(C#N)C#N"
  READOUT LABEL: "activity coefficient"
  ASSAY RESULT: 31.7

[I] C1CCCC1 [cyclopentane] + CCn1cc[n+](C)c1.N#C[B-](C#N)(C#N)C#N
[II] CCCCC [pentane] + CCn1cc[n+](C)c1.N#C[B-](C#N)(C#N)C#N
[III] COC(C)(C)C [2-methoxy-2-methylpropane] + CCn1cc[n+](C)c1.N#C[B-](C#N)(C#N)C#N
[IV] CCCC(C)=O [pentan-2-one] + CCn1cc[n+](C)c1.N#C[B-](C#N)(C#N)C#N
[V] CCCCCCCCCC [decane] + CCn1cc[n+](C)c1.N#C[B-](C#N)(C#N)C#N
# sort list by recorded activity coefficient, greatest to least Reply with the labels, ordered as the question asks.
V, II, I, III, IV
(V: 96.7, II: 14.9, I: 7.6, III: 3.04, IV: 0.796)

[I] C1CCCCC1 [cyclohexane] + CCn1cc[n+](C)c1.N#C[B-](C#N)(C#N)C#N
[II] C1=CCCCC1 [cyclohexene] + CCn1cc[n+](C)c1.N#C[B-](C#N)(C#N)C#N
[III] CCCCC(C)=O [2-hexanone] + CCn1cc[n+](C)c1.N#C[B-](C#N)(C#N)C#N
[IV] C=CCCCCC [1-heptene] + CCn1cc[n+](C)c1.N#C[B-](C#N)(C#N)C#N
Please list the entries, largest activity coefficient first. State the ranking by listing the labels in the requested order.
IV, I, II, III
(IV: 15.7, I: 10.9, II: 5.81, III: 1.09)

---

Assay: activity coefficient (dimensionless); of the first substance listed, at infinite dilution; xn = mol fraction of the nth substance listed
Settings: 298.15 K; Liquid; Chromatography; x1 = 0
READOUT LABEL: activity coefficient

- COMPOUND: "CCCCCCC [heptane] + CCn1cc[n+](C)c1.N#C[B-](C#N)(C#N)C#N"
  activity coefficient: 53.4
- COMPOUND: "CC(C)CC(C)(C)C [2,2,4-trimethylpentane] + CCn1cc[n+](C)c1.N#C[B-](C#N)(C#N)C#N"
  activity coefficient: 60.3
- COMPOUND: "c1ccsc1 [thiophene] + CCn1cc[n+](C)c1.N#C[B-](C#N)(C#N)C#N"
  activity coefficient: 0.938
- COMPOUND: "CCO [ethanol] + CCn1cc[n+](C)c1.N#C[B-](C#N)(C#N)C#N"
  activity coefficient: 1.58
- COMPOUND: "C=CCCCC [hex-1-ene] + CCn1cc[n+](C)c1.N#C[B-](C#N)(C#N)C#N"
  activity coefficient: 14.4
- COMPOUND: "C1CCCCCCC1 [cyclooctane] + CCn1cc[n+](C)c1.N#C[B-](C#N)(C#N)C#N"
  activity coefficient: 29.7
- COMPOUND: "COC(C)(C)C [2-methoxy-2-methylpropane] + CCn1cc[n+](C)c1.N#C[B-](C#N)(C#N)C#N"
  activity coefficient: 2.82
- COMPOUND: "CCCOCCC [dipropyl ether] + CCn1cc[n+](C)c1.N#C[B-](C#N)(C#N)C#N"
  activity coefficient: 8.54
- COMPOUND: "CCCCC [pentane] + CCn1cc[n+](C)c1.N#C[B-](C#N)(C#N)C#N"
  activity coefficient: 22
- COMPOUND: "CC1CCCCC1 [methylcyclohexane] + CCn1cc[n+](C)c1.N#C[B-](C#N)(C#N)C#N"
  activity coefficient: 24.9

[A] c1ccccc1 [benzene] + CCn1cc[n+](C)c1.N#C[B-](C#N)(C#N)C#N
[B] C1CCCC1 [cyclopentane] + CCn1cc[n+](C)c1.N#C[B-](C#N)(C#N)C#N
Lab note: record which item had the higher activity coefficient, A or B . Let me know the label of the one you choose.
B
(B: 10.7, A: 1.13)
